# System: S. aureus VRSA
# method.description: MIC, broth microdilution, vancomycin-resistant S. aureus (VRSA)
# Format: cell-based, Staphylococcus aureus
# details: VRSA; ratio of MIC of vancomycin and MIC of analogue
measured.attribute: MIC-fold improvement vs. vancomycin
API doc: respond with a numeric literal and nothing else, no unit.

Worked cases, answers included:
INSERT INTO measurements (compound, recorded_number) VALUES
  ('CNC(CC(C)C)C(=O)NC1C(=O)NC(CC(N)=O)C(=O)NC2C(=O)NC3C(=O)NC(C(=O)NC(C(=O)NCCCNC(=O)c4ccc(C(C)(C)C)cc4)c4cc(O)cc(O)c4-c4cc3ccc4O)C(O)c3ccc(c(Cl)c3)Oc3cc2cc(c3OC2OC(CO)C(O)C(O)C2OC2CC(C)(N)C(O)C(C)O2)Oc2ccc(cc2Cl)C1O (stereo not shown)', 16),
  ('CNC(CC(C)C)C(=O)NC1C(=O)NC(CC(N)=O)C(=O)NC2C(=O)NC3C(=O)NC(C(=O)NC(C(=O)NCCCNC(=O)c4ccc5cc(O)ccc5c4)c4cc(O)cc(O)c4-c4cc3ccc4O)C(O)c3ccc(c(Cl)c3)Oc3cc2cc(c3OC2OC(CO)C(O)C(O)C2OC2CC(C)(N)C(O)C(C)O2)Oc2ccc(cc2Cl)C1O (stereo not shown)', 32),
  ('CN[C@H](CC(C)C)C(=O)N[C@H]1C(=O)N[C@@H](CC(N)=O)C(=O)N[C@H]2C(=O)N[C@H]3C(=O)N[C@H](C(=O)N[C@H](C(=O)NCC(=O)Nc4ccc(OC)cc4)c4cc(O)cc(O)c4-c4cc3ccc4O)[C@H](O)c3ccc(c(Cl)c3)Oc3cc2cc(c3O[C@@H]2O[C@H](CO)[C@@H](O)[C@H](O)[C@H]2O[C@H]2C[C@](C)(N)[C@H](O)[C@H](C)O2)Oc2ccc(cc2Cl)[C@H]1O', 8);

Okay, next one:
## Task Lab note: need MIC-fold improvement vs. vancomycin for CNC(CC(C)C)C(=O)NC1C(=O)NC(CC(N)=O)C(=O)NC2C(=O)NC3C(=O)NC(C(=O)NC(C(=O)NCC(=O)Nc4ccc(C(=O)c5ccccc5)cc4)c4cc(O)cc(O)c4-c4cc3ccc4O)C(O)c3ccc(c(Cl)c3)Oc3cc2cc(c3OC2OC(CO)C(O)C(O)C2OC2CC(C)(N)C(O)C(C)O2)Oc2ccc(cc2Cl)C1O (stereo not shown) on S. aureus VRSA, anyone have it?
## Result 128
